Activity listing for selected compounds.
system: Mus musculus; experiment: Analgesic activity in albino mouse assessed as protection against thermal-induced paw licking or jumping behaviour at 10 mg/kg, po administered 1 hr prior to testing by hot plate test relative to control; type: functional
Express your answer in %, writing the number without its unit.

Sample answers from the record:
>  <structure-smiles-string>
CC1=CC[C@@H]2[C@@H](O[C@H](c3ccc(Br)cc3)OC2(C)C)[C@@H]1O

>  <value-unit>
%

>  <Activity>
33

$$$$
>  <structure-smiles-string>
CC1=CC[C@@H]2[C@@H](O[C@H](c3ccc([N+](=O)[O-])cc3)OC2(C)C)[C@@H]1O

>  <value-unit>
%

>  <Activity>
84

$$$$
>  <structure-smiles-string>
CC1=CC[C@@H]2[C@@H](O[C@H](c3ccc(C(F)(F)F)cc3)OC2(C)C)[C@@H]1O

>  <value-unit>
%

>  <Activity>
30

$$$$
>  <structure-smiles-string>
CC1=CC[C@@H]2[C@@H](O[C@H](c3cccc(F)c3)OC2(C)C)[C@@H]1O

>  <value-unit>
%

>  <Activity>
0

$$$$
>  <structure-smiles-string>
CC1=CC[C@@H]2[C@@H](O[C@H](c3ccc(Cl)cc3)OC2(C)C)[C@@H]1O

>  <value-unit>
%

>  <Activity>
8

$$$$

Now turn to the next compound.
*Q* Dear colleague, I am looking for the recorded Activity of the following compound: CC1=CC[C@@H]2[C@@H](O[C@H](c3cccc(Cl)c3)OC2(C)C)[C@@H]1O
*A* 36

====

tested on: Mus musculus; assay: Analgesic activity in albino mouse assessed as protection against thermal-induced paw licking or jumping behaviour at 10 mg/kg, po administered 1 hr prior to testing by hot plate test relative to control; type: functional
parameter-measured: Activity (%)
Express your answer in %, writing the number without its unit.

>  <compound>
O=C([O-])Cc1ccccc1Nc1c(Cl)cccc1Cl.[Na+] [DICLOFENAC SODIUM]

>  <parameter-measured>
Activity

>  <measured-result>
64

$$$$
>  <compound>
CC1=CC[C@@H]2[C@@H](O[C@H](c3cccc(Cl)c3)CC2(C)O)[C@@H]1O (mixture of isomers)

>  <parameter-measured>
Activity

>  <measured-result>
14

$$$$
>  <compound>
CC1=CC[C@@H]2[C@@H](O[C@H](c3ccc(Cl)c(Cl)c3)OC2(C)C)[C@@H]1O

>  <parameter-measured>
Activity

>  <measured-result>
36

$$$$

Now turn to the next compound.
*Q* Reported Activity for Mus musculus, given CC1=CC[C@@H]2[C@@H](O[C@H](c3ccc(F)cc3)OC2(C)C)[C@@H]1O ?
*A* 0

====

test: Toxicity in po dosed albino mouse; type: organism-based; settings: in vivo
parameter-measured: LD50 (mg/kg)
Express your answer in mg/kg, writing the number without its unit.

*Q* Dear colleague, I am looking for the recorded LD50 of the following molecule: CC1=CC[C@@H]2[C@@H](O[C@H](c3ccc(F)cc3)OC2(C)C)[C@@H]1O
*A* 1000

====

test system: Mus musculus; experiment: Analgesic activity in albino mouse assessed as inhibition of abdominal convulsion at 10 mg/kg, po administered 1 hr prior to acetic acid challenge measured at 5 to 8 mins by acetic acid-induced writhing test relative to control; assay type: functional; conditions: Abdomen
# label = MET if inhibition in vivo at 10 mg/kg >= 30% else NOT MET

Look over these answered cases.
>  <molecule>
O=C([O-])Cc1ccccc1Nc1c(Cl)cccc1Cl.[Na+] [DICLOFENAC SODIUM]

>  <group>
MET

$$$$
>  <molecule>
CC1=CC[C@@H]2[C@@H](O[C@H](c3cccc(F)c3)OC2(C)C)[C@@H]1O

>  <group>
MET

$$$$
>  <molecule>
CC1=CC[C@@H]2[C@@H](O[C@H](c3cccc(Cl)c3)OC2(C)C)[C@@H]1O

>  <group>
NOT MET

$$$$
>  <molecule>
CC1=CC[C@@H]2[C@@H](O[C@H](c3ccc(Cl)c(Cl)c3)OC2(C)C)[C@@H]1O

>  <group>
NOT MET

$$$$
>  <molecule>
CC1=CC[C@@H]2[C@@H](O[C@H](c3cccc(Cl)c3)CC2(C)O)[C@@H]1O (mixture of isomers)

>  <group>
NOT MET

$$$$
>  <molecule>
CC1=CC[C@@H]2[C@@H](O[C@H](c3ccc([N+](=O)[O-])cc3)OC2(C)C)[C@@H]1O

>  <group>
MET

$$$$
>  <molecule>
CC1=CC[C@@H]2[C@@H](O[C@H](c3ccc(Br)cc3)OC2(C)C)[C@@H]1O

>  <group>
MET

$$$$
>  <molecule>
CC1=CC[C@@H]2[C@@H](O[C@H](c3ccc(F)cc3)OC2(C)C)[C@@H]1O

>  <group>
MET

$$$$
>  <molecule>
CC1=CC[C@@H]2[C@@H](O[C@H](c3ccc(Cl)cc3)OC2(C)C)[C@@H]1O

>  <group>
MET

$$$$

Now let's try a different one.
*Q* Item CC1=CC[C@@H]2[C@@H](O[C@H](c3ccc(C(F)(F)F)cc3)OC2(C)C)[C@@H]1O with inhibition in vivo at 10 mg/kg of 30% or above?
*A* MET

Recorded values, source ChEMBL document CHEMBL2429714.
